- assay: growth loss of phage-infected AddAB-carrying E. coli, confirmation, counter-screen for RecBCD inhibitor project, absorbance, E. coli V3065, T4 phage (AID 651984);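 also: higher means less bacterial growth from phage killing when AddAB is blocked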
- runParameters: E. coli expressing H. pylori AddAB + T4 phage, OD growth; at 11.9 µM; gene 2 mutant T4, recBCD-deleted host
This is one part of the list. Active and inactive are the calls of the source.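 The calls were made as follows: active = mean inhibition above the solvent-only control wells' mean plus 3 SD (cut at about 22% in these data); inactive = the rest.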
Classes used: active, inactive

1) ON=C1/C(=N\O)CC2(C/C1=N/O)OCCO2    inactive
2) CN(C)[C@@H]1C(=O)C(C(N)=O)=C(O)[C@@]2(O)C(=O)C3=C(O)c4c(O)ccc(Cl)c4[C@@H](O)[C@H]3C[C@@H]12    active
3) Cc1cccc(NC(=O)c2ccc([N+](=O)[O-])o2)c1    active
4) CC[C@H]1OC(=O)[C@H](C)[C@@H](O[C@H]2C[C@@](C)(OC)[C@@H](O)[C@H](C)O2)[C@H](C)[C@@H](O[C@@H]2O[C@H](C)C[C@H](N(C)C)[C@H]2O)[C@](C)(O)C[C@@H](C)[C@@H]2N[C@@H](COCCOC)O[C@H]([C@H]2C)[C@]1(C)O    active
